# System: cultured human mast cells (CHMC)
# measurement_protocol: CHMC low cell density IgE activation: tryptase assay
# Type: cell-based
# stated_conditions: low cell density; read-out: CHMC anti-IgE Tryptase
assay_metric: IC50 (nM)

>  <compound>
CC1(C)C(=O)NC(=O)c2cc(Nc3nc(Nc4ccc(CN)cc4)ncc3F)ccc21 [Compound R950463]

>  <assay_metric>
IC50

>  <qualifying_sign>
=

>  <readout_number>
2460

$$$$
>  <compound>
COc1ccc(Nc2ncc(F)c(Nc3ccc4c(c3)C(N)CCO4)n2)cc1Cl (racemic) [Compound R950428]

>  <assay_metric>
IC50

>  <qualifying_sign>
=

>  <readout_number>
123

$$$$
>  <compound>
Fc1cnc(Nc2ccc(Cl)c(Cl)c2)nc1NC1CCC1 [Compound R945394]

>  <assay_metric>
IC50

>  <qualifying_sign>
=

>  <readout_number>
1240

$$$$
>  <compound>
COc1ccc(Nc2nc(Nc3ccc4cc[nH]c4c3)ncc2F)cc1Cl [Compound R926976]

>  <assay_metric>
IC50

>  <qualifying_sign>
=

>  <readout_number>
305

$$$$
>  <compound>
COc1ccc(Nc2ncc(F)c(Nc3ccc4c(c3)NC(=O)C(CCO)O4)n2)cc1Cl (stereo not shown) [Compound R908951]

>  <assay_metric>
IC50

>  <qualifying_sign>
=

>  <readout_number>
85

$$$$
>  <compound>
CCOC(=O)CCn1ncc2ccc(Nc3ncc(F)c(Nc4ccc5c(c4)NC(=O)C(C)(C)O5)n3)cc21 [Compound R935434]

>  <assay_metric>
IC50

>  <qualifying_sign>
=

>  <readout_number>
308

$$$$
>  <compound>
CC1Oc2ccc(Nc3nc(Nc4ccc5c(c4)C(N)CCO5)ncc3F)cc2NC1=O (mixture of isomers) [Compound R950438]

>  <assay_metric>
IC50

>  <qualifying_sign>
=

>  <readout_number>
888

$$$$
>  <compound>
COc1cc(Nc2ncc(F)c(Nc3ccc(OC)c(Cl)c3)n2)cc(OC)c1 [Compound R927066]

>  <assay_metric>
IC50

>  <qualifying_sign>
=

>  <readout_number>
283

$$$$
>  <compound>
COc1cc(Nc2ncc(F)c(Nc3ccc(OC(F)(F)F)c(Cl)c3)n2)cc(OC)c1 [Compound R927067]

>  <assay_metric>
IC50

>  <qualifying_sign>
=

>  <readout_number>
625

$$$$
>  <compound>
CC(=O)Nc1cccc(Nc2nc(Nc3cc(C)cc(C)c3)ncc2F)n1 [Compound R927092]

>  <assay_metric>
IC50

>  <qualifying_sign>
=

>  <readout_number>
377

$$$$
>  <compound>
CNC(=O)COc1cccc(Nc2ncc(F)c(Nc3ccc4c(c3)C(NC(=O)OC(C)(C)C)CCO4)n2)c1 (racemic) [Compound R950405]

>  <assay_metric>
IC50

>  <qualifying_sign>
=

>  <readout_number>
1360

$$$$
>  <compound>
CC1(C)C(=O)NC(=O)c2cc(Nc3nc(Nc4ccc5cn[nH]c5c4)ncc3F)ccc21 [Compound R908956]

>  <assay_metric>
IC50

>  <qualifying_sign>
=

>  <readout_number>
340

$$$$
>  <compound>
COC(=O)COc1cccc(Nc2ncc(F)c(Nc3ccc(N4CCOCC4)cc3)n2)c1 [Compound R945361]

>  <assay_metric>
IC50

>  <qualifying_sign>
=

>  <readout_number>
2360

$$$$
>  <compound>
Cc1cc(Nc2ncc(F)c(Nc3ccc4c(c3)C(=O)NC(=O)C4(C)C)n2)cc(Cl)c1O [Compound R909320]

>  <assay_metric>
IC50

>  <qualifying_sign>
=

>  <readout_number>
290

$$$$
>  <compound>
CC(=O)N(C)c1ccc(Nc2nc(NC3CC3)ncc2F)cc1 [Compound R945375]

>  <assay_metric>
IC50

>  <qualifying_sign>
>

>  <readout_number>
10000

$$$$
>  <compound>
CNC(=O)CCn1cc2cc(Nc3ncc(F)c(Nc4ccc(Cl)c(Cl)c4)n3)ccc2n1 [Compound R935452]

>  <assay_metric>
IC50

>  <qualifying_sign>
=

>  <readout_number>
213

$$$$

* * *

# Test system: cultured human mast cells (CHMC)
# measurement_protocol: CHMC low cell density IgE activation: tryptase assay
# Format: cell-based
# stated_conditions: low cell density; read-out: CHMC anti-IgE Tryptase

>  <compound>
COc1cc(Nc2ncc(F)c(Nc3ccc4c(c3)NC(=O)C(C)(C)O4)n2)cc(OC)c1 [Compound R927071]

>  <qualifying_sign>
=

>  <IC50, nM>
67

$$$$
>  <compound>
CC1(C)Oc2ccc(Nc3nc(Nc4cccc(OCC(=O)NC5CCC5)c4)ncc3F)nc2NC1=O

>  <qualifying_sign>
=

>  <IC50, nM>
188

$$$$
>  <compound>
COc1ccc(Nc2ncc(F)c(Nc3ccc4c(n3)NC(=O)CO4)n2)cc1F

>  <qualifying_sign>
=

>  <IC50, nM>
112

$$$$
>  <compound>
COC(=O)N1CCN(c2ccc(Nc3ncc(F)c(Nc4ccc5c(n4)NC(=O)C(C)(C)O5)n3)cc2)CC1

>  <qualifying_sign>
=

>  <IC50, nM>
53

$$$$
>  <compound>
COc1ccc(Nc2nc(Nc3cccc(OCC(=O)NCC(O)CO)c3)ncc2F)cc1Cl (racemic)

>  <qualifying_sign>
=

>  <IC50, nM>
368

$$$$
>  <compound>
CNC(=O)Nc1cccc(Nc2nc(Nc3cc(C)cc(C)c3)ncc2F)n1

>  <qualifying_sign>
=

>  <IC50, nM>
1530

$$$$
>  <compound>
COc1cc(Nc2nc(Nc3ccc4[nH]ncc4c3)ncc2F)ccc1F

>  <qualifying_sign>
=

>  <IC50, nM>
417

$$$$
>  <compound>
CNC(=O)COc1cccc(Nc2ncc(F)c(Nc3cc(C)c(O)c(Cl)c3)n2)c1

>  <qualifying_sign>
=

>  <IC50, nM>
112

$$$$
>  <compound>
COc1cc(Nc2ncc(F)c(Nc3ccc4c(c3)NC(=O)C(C)(C)O4)n2)cc(C(F)(F)F)c1

>  <qualifying_sign>
=

>  <IC50, nM>
235

$$$$
>  <compound>
COc1ccc(Nc2nc(Nc3cc(C)cc(C)c3)ncc2F)cc1Cl

>  <qualifying_sign>
=

>  <IC50, nM>
436

$$$$
>  <compound>
COc1ccc(Nc2ncc(F)c(Nc3ccc4c(n3)NC(=O)C(C)(C)O4)n2)cc1F

>  <qualifying_sign>
=

>  <IC50, nM>
1320

$$$$
>  <compound>
CC(C)NC(=O)C1Cc2cc(Nc3ncc(F)c(Nc4ccc(OC(F)(F)F)c(Cl)c4)n3)ccc2O1 (stereo not shown)

>  <qualifying_sign>
=

>  <IC50, nM>
1200

$$$$
>  <compound>
COc1cc(Nc2ncc(F)c(Nc3ccc4cnn(C)c4c3)n2)c(OC)cc1Cl

>  <qualifying_sign>
=

>  <IC50, nM>
2890

$$$$
>  <compound>
NCc1ccc(Nc2ncc(F)c(Nc3ccc4c(c3)NC(=O)C(F)(F)O4)n2)cc1

>  <qualifying_sign>
=

>  <IC50, nM>
351

$$$$
>  <compound>
CC1(C)Oc2ccc(Nc3ncc(F)c(Nc4ccc5cn[nH]c5c4)n3)cc2NC1=O

>  <qualifying_sign>
=

>  <IC50, nM>
176

$$$$
>  <compound>
CNC(=O)COc1cccc(Nc2ncc(F)c(Nc3ccc4c(c3)C(NS(=O)(=O)c3ccc(C)cc3)CCO4)n2)c1 (racemic)

>  <qualifying_sign>
=

>  <IC50, nM>
1890

$$$$
>  <compound>
Cc1cccc(C)c1Nc1ncc(F)c(Nc2ccc3c(c2)OCCO3)n1

>  <qualifying_sign>
=

>  <IC50, nM>
286

$$$$
>  <compound>
COc1ccc(Nc2ncc(F)c(Nc3ccc4c(n3)NC(=O)C(C)(C)O4)n2)cc1Cl

>  <qualifying_sign>
=

>  <IC50, nM>
316

$$$$
>  <compound>
CNC(=O)COc1cccc(Nc2ncc(F)c(Nc3ccc4c(c3)C(NS(C)(=O)=O)CCO4)n2)c1 (racemic)

>  <qualifying_sign>
>

>  <IC50, nM>
10000

$$$$
>  <compound>
COC(=O)N1CCN(c2ccc(Nc3ncc(F)c(NC4CC4)n3)cc2)CC1

>  <qualifying_sign>
=

>  <IC50, nM>
713

$$$$
>  <compound>
O=C1COc2ccc(Nc3nc(Nc4ccc5c(c4)OCCO5)ncc3F)nc2N1

>  <qualifying_sign>
=

>  <IC50, nM>
131

$$$$
>  <compound>
COc1c(Cl)cc(Nc2ncc(F)c(Nc3ccc4c(c3)NC(=O)[C@@H](C)O4)n2)cc1Cl

>  <qualifying_sign>
=

>  <IC50, nM>
496

$$$$
>  <compound>
CCOC(=O)CCn1ncc2ccc(Nc3ncc(F)c(Nc4ccc(OC)c(Cl)c4)n3)cc21

>  <qualifying_sign>
=

>  <IC50, nM>
1170

$$$$
>  <compound>
COc1ccc(Nc2ncc(F)c(Nc3ccc4c(c3)OCCO4)n2)cc1Cl

>  <qualifying_sign>
=

>  <IC50, nM>
466

$$$$
>  <compound>
CCCCOc1ccc(Nc2ncc(F)c(Nc3ccc4c(n3)NC(=O)CO4)n2)cc1

>  <qualifying_sign>
>

>  <IC50, nM>
10000

$$$$
>  <compound>
CCOC(=O)CCn1ncc2cc(Nc3ncc(F)c(Nc4ccc(OC)c(Cl)c4)n3)ccc21

>  <qualifying_sign>
=

>  <IC50, nM>
748

$$$$
>  <compound>
NC1CCOc2ccc(Nc3nc(Nc4ccc5cn[nH]c5c4)ncc3F)cc21 (racemic)

>  <qualifying_sign>
=

>  <IC50, nM>
50

$$$$
>  <compound>
COc1cc(Nc2ncc(F)c(Nc3ccc4c(c3)NC(=O)C(C)(C)O4)n2)cc(OC)c1 [Compound R927072]

>  <qualifying_sign>
=

>  <IC50, nM>
64

$$$$
>  <compound>
CNC(=O)CCn1ncc2cc(Nc3ncc(F)c(Nc4ccc(Cl)c(Cl)c4)n3)ccc21

>  <qualifying_sign>
=

>  <IC50, nM>
544

$$$$
>  <compound>
COc1ccc(Nc2ncc(F)c(Nc3ccc4c(c3)NC(=O)[C@@H](C)O4)n2)cc1Cl

>  <qualifying_sign>
=

>  <IC50, nM>
225

$$$$
>  <compound>
Cc1cc(Nc2ncc(F)c(Nc3ccc4c(c3)NC(=O)C(C)(C)O4)n2)cc(C)c1Cl

>  <qualifying_sign>
=

>  <IC50, nM>
65

$$$$

Provenance of the data: patent US8158621B2
